# experimental-target: P-type calcium channels (Rattus norvegicus)
# Construct: Male rats (Sprague-Dawley, 200-220 g) were killed by decapitation and neocortices were isolated by blunt dissection
# Sequence (P54282 whole entry): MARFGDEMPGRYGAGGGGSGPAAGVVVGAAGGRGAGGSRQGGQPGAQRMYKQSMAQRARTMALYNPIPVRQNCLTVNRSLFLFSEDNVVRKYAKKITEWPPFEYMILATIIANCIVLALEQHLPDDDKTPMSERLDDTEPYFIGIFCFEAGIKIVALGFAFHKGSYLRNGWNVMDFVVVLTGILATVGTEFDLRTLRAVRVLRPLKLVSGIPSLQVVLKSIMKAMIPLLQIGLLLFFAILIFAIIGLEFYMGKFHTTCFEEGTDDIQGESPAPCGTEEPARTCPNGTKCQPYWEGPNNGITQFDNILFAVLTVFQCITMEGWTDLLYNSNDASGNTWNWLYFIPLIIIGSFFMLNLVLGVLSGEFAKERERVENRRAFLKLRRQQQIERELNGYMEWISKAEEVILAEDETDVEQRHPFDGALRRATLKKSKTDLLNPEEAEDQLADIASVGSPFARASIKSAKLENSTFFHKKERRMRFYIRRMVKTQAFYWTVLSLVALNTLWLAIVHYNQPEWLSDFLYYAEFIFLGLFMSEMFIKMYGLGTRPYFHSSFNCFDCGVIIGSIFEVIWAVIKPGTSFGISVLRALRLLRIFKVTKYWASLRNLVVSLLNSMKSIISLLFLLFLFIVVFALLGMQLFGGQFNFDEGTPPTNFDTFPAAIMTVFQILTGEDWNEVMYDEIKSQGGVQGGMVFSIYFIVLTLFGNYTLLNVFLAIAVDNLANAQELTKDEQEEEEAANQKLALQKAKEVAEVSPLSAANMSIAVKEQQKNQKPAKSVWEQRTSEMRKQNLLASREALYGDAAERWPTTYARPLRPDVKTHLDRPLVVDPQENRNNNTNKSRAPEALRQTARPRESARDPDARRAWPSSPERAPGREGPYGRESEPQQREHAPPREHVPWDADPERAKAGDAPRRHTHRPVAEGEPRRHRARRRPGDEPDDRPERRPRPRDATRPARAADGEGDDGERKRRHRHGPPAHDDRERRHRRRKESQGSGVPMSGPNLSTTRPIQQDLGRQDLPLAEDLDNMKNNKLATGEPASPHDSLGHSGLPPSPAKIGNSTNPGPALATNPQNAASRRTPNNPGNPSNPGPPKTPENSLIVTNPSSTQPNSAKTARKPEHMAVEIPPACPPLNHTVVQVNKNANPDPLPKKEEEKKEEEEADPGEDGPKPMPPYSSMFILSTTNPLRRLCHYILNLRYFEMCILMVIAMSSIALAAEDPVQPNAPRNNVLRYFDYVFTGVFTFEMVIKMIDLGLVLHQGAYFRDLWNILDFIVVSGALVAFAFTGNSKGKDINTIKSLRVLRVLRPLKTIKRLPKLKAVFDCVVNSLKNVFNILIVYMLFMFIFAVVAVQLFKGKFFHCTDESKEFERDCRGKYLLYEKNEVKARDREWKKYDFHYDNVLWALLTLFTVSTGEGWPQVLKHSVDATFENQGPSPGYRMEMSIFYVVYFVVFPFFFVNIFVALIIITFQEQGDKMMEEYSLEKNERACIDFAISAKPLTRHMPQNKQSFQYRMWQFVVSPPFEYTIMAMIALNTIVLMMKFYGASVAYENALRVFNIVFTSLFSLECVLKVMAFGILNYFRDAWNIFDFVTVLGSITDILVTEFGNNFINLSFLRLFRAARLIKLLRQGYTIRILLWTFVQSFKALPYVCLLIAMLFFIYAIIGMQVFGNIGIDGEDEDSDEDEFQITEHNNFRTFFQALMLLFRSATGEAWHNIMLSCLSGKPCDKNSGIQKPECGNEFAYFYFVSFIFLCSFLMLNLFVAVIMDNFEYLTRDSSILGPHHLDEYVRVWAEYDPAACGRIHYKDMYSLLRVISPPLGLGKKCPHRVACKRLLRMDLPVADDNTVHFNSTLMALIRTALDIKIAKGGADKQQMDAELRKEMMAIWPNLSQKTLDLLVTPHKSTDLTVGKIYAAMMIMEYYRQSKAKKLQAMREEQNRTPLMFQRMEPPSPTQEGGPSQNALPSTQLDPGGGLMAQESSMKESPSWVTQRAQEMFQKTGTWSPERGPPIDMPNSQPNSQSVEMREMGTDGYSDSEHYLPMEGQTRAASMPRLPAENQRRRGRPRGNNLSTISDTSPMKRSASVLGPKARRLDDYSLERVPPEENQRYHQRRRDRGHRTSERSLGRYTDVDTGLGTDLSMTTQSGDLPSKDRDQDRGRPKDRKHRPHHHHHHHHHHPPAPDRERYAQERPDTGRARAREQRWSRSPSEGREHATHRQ
# experimental-details: Inhibition of depolarization induced Ca++ flux (CaFl), 45Ca++ influx into rat neocortical synaptosomes
# measurement-setup: 30 mM KCl stimulated 45Ca flux, rat neocortical synaptosomes
reported-property: IC50 (µM)
Express the result in µM but write the number alone.

What measured IC50 goes with COc1ccc(CCN(Cc2ccccc2)CC(O)COc2ccc(C3CCCCC3)cc2C)cc1OC (centres unmarked) ? 9.2

What measured IC50 goes with COc1ccc(CCN(Cc2ccccc2)CC(O)CSc2cccc3ccccc23)cc1OC (centres unmarked) ? 2.5

What measured IC50 goes with COc1ccc(CCN(Cc2ccccc2)CC(O)COc2cccc(C)c2)cc1OC (centres unmarked) ? 9.2

What measured IC50 goes with COc1ccc(CCN(C)CC(O)COc2ccc(OCc3ccccc3)cc2)cc1OC (centres unmarked) ? 3.3

What measured IC50 goes with COc1ccc(CN(CCc2ccc(OC)c(OC)c2)CC(O)COc2cccc(C)c2)cc1 (centres unmarked) ? 5.4

What measured IC50 goes with COc1ccc(CCN(Cc2ccccc2[N+](=O)[O-])CC(O)COc2cccc(C)c2)cc1OC (centres unmarked) ? 3.1

What measured IC50 goes with COc1ccc(CCN(C)CC(O)COc2ccc(C3CCCCC3)cc2C)cc1OC (centres unmarked) ? 2.1

What measured IC50 goes with COc1cccc(CN(CCc2ccc(OC)c(OC)c2)CC(O)COc2cccc(C)c2)c1 (centres unmarked) ? 5.1

Numbers sourced from patent US5482964A.
